Test system: SIV (MAC251)
Experiment: inhibition of virus-induced cytopathicity in MT-4 cells, SIV (MAC251)
Type: cell-based, Simian immunodeficiency virus
Settings: Simian immunodeficiency virus, MT4, 120 h; MT-4 cells, viral cytopathic effect, 5 days post-infection; read-out: EC50 SIV MAC251
pEC50: −log10 of the molar value.
Metric: pEC50

Record excerpt, results attached:
Compound | Target Entity | Recorded Value
Cc1ccnc2c1NC(=O)c1cccnc1N2C1CC1 [nevirapine, reference compound] | SIV (MAC251) | < 4.01
Oc1nc(O)c2c(n1)Oc1nc(O)nc(O)c1C2c1ccc(Cl)cc1 | SIV (MAC251) | < 3.46
COc1nc(O)nc2c1C(c1ccc([N+](=O)[O-])cc1)c1c(OC)nc(O)nc1O2 | SIV (MAC251) | < 3.50
Clc1nc(Cl)c2c(n1)Oc1nc(Cl)nc(Cl)c1C2c1ccccc1 | SIV (MAC251) | < 4.76

# next compound below
Inquiry: Give the value of pEC50 reported for the following: Oc1nc(O)c2c(n1)Oc1nc(O)nc(O)c1C2c1ccc(I)cc1
Reply text: < 3.56

----------
# pIC50 listing for each entry below
Target: recombinant His-tagged HIV-1 integrase (Human immunodeficiency virus type 1 group M subtype B)
Assay: HIV-1 integrase 3′-processing assay, oligonucleotide-based
Keep in mind that pIC50 stands for -log10 of concentration in molar terms.

Chemical String | Recorded Value
Oc1nc(O)c2c(n1)Oc1nc(O)nc(O)c1C2c1ccccc1 | 4.65

Let us examine a further case.
Inquiry: Annotate the compound O=[N+]([O-])c1ccc(C2c3c(O)nc(S)nc3Oc3nc(S)nc(O)c32)cc1 with its measured pIC50.
Reply text: 6.05
